Data credit: patent US9562021B2

Molecular target: HDAC4 (Homo sapiens, UniProt P56524)
Sequence (P56524 whole entry): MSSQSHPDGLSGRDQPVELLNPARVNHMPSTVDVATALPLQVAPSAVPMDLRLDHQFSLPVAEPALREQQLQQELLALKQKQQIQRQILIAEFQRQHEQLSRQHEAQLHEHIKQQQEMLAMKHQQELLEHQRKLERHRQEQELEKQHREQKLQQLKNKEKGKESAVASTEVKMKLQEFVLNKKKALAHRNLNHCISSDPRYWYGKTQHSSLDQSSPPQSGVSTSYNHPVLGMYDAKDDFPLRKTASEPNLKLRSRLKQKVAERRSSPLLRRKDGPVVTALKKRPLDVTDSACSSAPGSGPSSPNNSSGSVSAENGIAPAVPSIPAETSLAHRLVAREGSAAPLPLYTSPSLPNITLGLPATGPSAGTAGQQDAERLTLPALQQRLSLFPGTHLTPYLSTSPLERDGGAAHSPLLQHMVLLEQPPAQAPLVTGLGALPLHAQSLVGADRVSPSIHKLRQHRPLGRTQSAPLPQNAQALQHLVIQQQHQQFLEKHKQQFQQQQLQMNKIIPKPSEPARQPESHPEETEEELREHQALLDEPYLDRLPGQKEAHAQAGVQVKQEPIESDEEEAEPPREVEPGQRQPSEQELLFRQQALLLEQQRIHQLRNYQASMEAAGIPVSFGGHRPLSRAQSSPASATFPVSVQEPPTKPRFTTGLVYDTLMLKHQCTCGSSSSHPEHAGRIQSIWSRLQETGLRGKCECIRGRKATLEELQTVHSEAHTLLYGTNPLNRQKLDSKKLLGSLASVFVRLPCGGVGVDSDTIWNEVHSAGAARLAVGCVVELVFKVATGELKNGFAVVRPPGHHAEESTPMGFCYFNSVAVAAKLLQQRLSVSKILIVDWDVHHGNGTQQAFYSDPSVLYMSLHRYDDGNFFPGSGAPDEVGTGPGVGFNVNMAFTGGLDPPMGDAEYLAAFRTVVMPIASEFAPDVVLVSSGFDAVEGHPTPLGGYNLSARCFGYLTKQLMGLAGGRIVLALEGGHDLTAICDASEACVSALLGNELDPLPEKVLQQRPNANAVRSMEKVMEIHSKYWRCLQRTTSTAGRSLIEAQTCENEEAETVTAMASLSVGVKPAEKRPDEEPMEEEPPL
Assay: HDAC4 (bioch) IC50
Format: biochemical
Conditions: Table 4, bioch; read-out: HDAC4

# molecule, IC50, nM
data = [
    ("O=C(NO)C(c1ccccc1)c1ccc(-c2cncnc2)cc1 (stereo not shown) [drawing 21]", 90),
]

----------
Listed below: Kp values for each entry.
Experiment: PK study (iv and po 10 mg/kg), plasma, brain and muscle
Assay type: in vivo
Conditions: 10 mg/Kg; Oral PK, muscle; read-out: Muscle-plasma

# compound, Kp
records = [
    ("O=C(NO)C(c1ccc(N2CCOCC2)cc1)c1ccccc1F (centres unmarked)", "1.5 to 5.2"),
    ("O=C(NO)C(c1ccccc1)c1ccc(-c2cncnc2)cc1 (centres unmarked) [drawing 19]", "1 to 8"),
]

----------
Target: HDAC4 (Homo sapiens)
Test: HDAC4 (cell) IC50
Format: cell-based
Details: Table 3
Listed below: IC50 values for each entry.

# molecule, IC50 / µM
rows = [
    ("O=C(NO)C(c1ccccc1)c1ccc(-c2cncnc2)cc1 (centres unmarked) [drawing 19]", 0.55),
    ("O=C(NO)C(c1ccc(N2CCOCC2)cc1)c1ccccc1F (centres unmarked)", 0.64),
]

----------
Assay: PK study (iv and po 10 mg/kg), plasma, brain and muscle
Type: in vivo
Details: 10 mg/Kg; Oral PK, brain
experimental.endpoint: half-life (h)

# compound, experimental.endpoint, number
records = [
    ("O=C(NO)C(c1ccccc1)c1ccc(-c2cncnc2)cc1 (stereo not shown) [drawing 19]", "half-life", 2.7),
]

----------
Biological target: HDAC4 (Homo sapiens, UniProt P56524)
Test: HDAC4 (bioch) IC50
Assay type: biochemical
Details: Table 3; read-out: IC50 μM (bioch)

# compound, IC50 [µM]
data = [
    ("O=C(NO)C(c1ccc(N2CCOCC2)cc1)c1ccccc1F (centres unmarked)", 0.07),
    ("O=C(NO)C(c1ccccc1)c1ccc(-c2cncnc2)cc1 (centres unmarked) [drawing 19]", 0.09),
]

----------
Listed below: IC50 values for each entry.
System: Boc-Lys(Ac)
Assay: Boc-Lys(Ac) IC50
Format: cell-based

# molecule, IC50
data = [
    ("Cc1ncc(-c2ccc(C(C(=O)NO)c3ccccc3F)cc2)cn1 (centres unmarked)", "> 50 µM"),
    ("O=C(NO)C(c1ccc(-c2ncc(C(F)(F)F)cn2)cc1)c1ccccc1F (centres unmarked)", "> 50 µM"),
]

----------
Assay: PK study (iv and po 10 mg/kg), plasma, brain and muscle
Type: in vivo
Conditions: 10 mg/Kg; Oral PK, muscle

# compound, half-life / h
rows = [
    ("O=C(NO)C(c1ccccc1)c1ccc(-c2cncnc2)cc1 (stereo not shown) [drawing 19]", 4),
]

----------
Experiment: PK study (iv and po 10 mg/kg), plasma, brain and muscle
Format: in vivo
Settings: 10 mg/Kg; Oral PK, plasma
experimental.endpoint: half-life (h)

# molecule, experimental.endpoint, number
records = [
    ("O=C(NO)C(c1ccccc1)c1ccc(-c2cncnc2)cc1 (stereo not shown) [drawing 19]", "half-life", 1.9),
]

----------
Experiment: PK study (iv and po 10 mg/kg), plasma, brain and muscle
Format: in vivo
Conditions: 5 mg eq./Kg; IV PK, plasma; read-out: Volume of Distribution at Steady State (Vdss)
experimental.endpoint: Vd (L/kg)

# compound, experimental.endpoint, unit.name, number
rows = [
    ("O=C(NO)C(c1ccccc1)c1ccc(-c2cncnc2)cc1 (centres unmarked) [drawing 19]", "Vd", "L/kg", 2.6),
    ("O=C(NO)C(c1ccc(N2CCOCC2)cc1)c1ccccc1F (centres unmarked)", "Vd", "L/kg", 3.1),
]

----------
Listed below: clearance values for each entry.
Assay: PK study (iv and po 10 mg/kg), plasma, brain and muscle
Assay type: in vivo
Conditions: 5 mg eq./Kg; IV PK, plasma; read-out: Clearance (CLp) (converted)
experimental.endpoint: clearance (mL/min/kg)

# compound, number
data = [
    ("O=C(NO)C(c1ccc(N2CCOCC2)cc1)c1ccccc1F (centres unmarked)", 123),
    ("O=C(NO)C(c1ccccc1)c1ccc(-c2cncnc2)cc1 (centres unmarked) [drawing 19]", 107),
]

----------
Listed below: half-life values for each entry.
Assay: PK study (iv and po 10 mg/kg), plasma, brain and muscle
Assay type: in vivo
Details: 5 mg eq./Kg; IV PK, brain

# compound, half-life [h]
data = [
    ("O=C(NO)C(c1ccccc1)c1ccc(-c2cncnc2)cc1 (centres unmarked) [drawing 19]", 2.2),
    ("O=C(NO)C(c1ccc(N2CCOCC2)cc1)c1ccccc1F (centres unmarked)", 3.3),
]
